- Tested on: LOC_OS03G12390-cb001
- measurement_notes: thermal shift delta Tm vs DMSO control; higher = stronger stabilization (binding);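 note: purified Escherichia coli-expressed rice kinase domain construct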
- condition_label: 12.5 µM; protein concentration 2 µM
measurement_kind: thermal shift delta Tm (°C)
I only need the number, in °C, no unit after it.

// below: answered compounds
compound: O=c1ncn2nc(Sc3ccc(F)cc3F)ccc2c1-c1c(Cl)cccc1Cl
output_unit: °C
test_result: 0.07
//
compound: O=C(O)CCC(=O)Nc1ccc(Br)cn1 [Bikinin]
output_unit: °C
test_result: 0.13
//
compound: O=C1NC(=O)/C(=C/c2ccc3nccc(-c4ccncc4)c3c2)S1
output_unit: °C
test_result: 2.47

QUERY: Quick check: thermal shift delta Tm of Cc1ccc(NC(=O)c2ccc(CN3CC[C@H](N(C)C)C3)c(C(F)(F)F)c2)cc1Nc1nccc(-c2cncnc2)n1 [Bafetinib (INNO-406)] ?
RESULT: 0.16

QUERY: Quick check: thermal shift delta Tm of CN1CCC(Nc2nc(Nc3ccc(Oc4ccccc4)cc3)c3c(=O)[nH]cc(Br)c3n2)CC1 ?
RESULT: 2.05

----------
- Test system: LOC_OS01G57100-cb003
- measurement_notes: thermal shift delta Tm vs DMSO control; higher = stronger stabilization (binding)
- condition_label: 12.5 µM; protein concentration 2 µM
measurement_kind: thermal shift delta Tm (°C)
I only need the number, in °C, no unit after it.

compound: COc1ncc(-c2cc(-c3ncc(CN4C[C@@H](C)O[C@@H](C)C4)o3)c3cn[nH]c3c2)cc1NS(C)(=O)=O
thermal shift delta Tm [°C]: 1.25
//
compound: O=C(Cc1ccc(-c2ccc(OCCN3CCOCC3)cc2)cn1)NCc1ccccc1
thermal shift delta Tm [°C]: 1.17

QUERY: Quick check: thermal shift delta Tm of CN1CCN(Cc2ccc(NC(=O)Nc3ccc(Oc4ccnc(N)n4)cc3)cc2C(F)(F)F)CC1 ?
RESULT: -0.21

QUERY: Quick check: thermal shift delta Tm of COc1cc2nccc(Oc3ccc(NC(=O)NC4CC4)c(Cl)c3)c2cc1C(N)=O [Lenvatinib (E7080)] ?
RESULT: -0.21

QUERY: Quick check: thermal shift delta Tm of CCN(CC)CCCC(C)Nc1nc(C)cc(Nc2ccc3nc(C)cc(N)c3c2)n1 (configuration not stated) ?
RESULT: 1.43

QUERY: Quick check: thermal shift delta Tm of C=CC(=O)Nc1cccc(Nc2nc(Nc3ccc(OCCOC)cc3)ncc2F)c1 ?
RESULT: 1.56

QUERY: Quick check: thermal shift delta Tm of COc1ccc(F)c(F)c1C(=O)c1cnc(NC2CCN(S(C)(=O)=O)CC2)nc1N ?
RESULT: 0.71

QUERY: Quick check: thermal shift delta Tm of COc1cc2ncnc(Nc3ccc(Oc4ccccc4)cc3C)c2cc1OC ?
RESULT: 1.05

QUERY: Quick check: thermal shift delta Tm of Cc1ccc(C(=O)Nc2ccc(Oc3cc4cnn(C)c4cc3-c3cn[nH]c3)c(F)c2)c(=O)n1-c1ccc(F)cc1 ?
RESULT: 2.31

QUERY: Quick check: thermal shift delta Tm of CN1CCN(c2nc(C3=C(c4c[nH]c5ccccc45)C(=O)NC3=O)c3ccccc3n2)CC1 [Sotrastaurin] ?
RESULT: 2.03

QUERY: Quick check: thermal shift delta Tm of CN1CCN(c2ccc3nc(-c4c(N)c5c(F)cccc5[nH]c4=O)[nH]c3c2)CC1 [Dovitinib (TKI-258, CHIR-258)] ?
RESULT: -0.17
